- METHOD SUMMARY: folding stability dG unfold (combined trypsin and chymotrypsin); higher = more stable
RECORDED ENDPOINT: folding stability dG unfold (kcal/mol)

[[record]]
polymer_sequence = "SAGGSAGGSAGGKIYKKKNGTYKIIIYDKKTKKVYEIEIPVSKEDKPKILKEAKELAKKSAGGSAGGSAGGS [r10_379_TrROS_Hall]"
unit_descriptor = "kcal/mol"
reported_result = 1.17

[[record]]
polymer_sequence = "SAGGSAGGSAGEKTFVIDEVKITSVERLPDGSLRVTIEVRLPNGETLTLTLTLPPGAVLESAGGSAGGSAGG [r11_429_TrROS_Hall]"
unit_descriptor = "kcal/mol"
reported_result = 3.05

[[record]]
polymer_sequence = "SAGGSASMVEEEVTLQKKVKSEEEALKFAEEVKESNPHVKTVEVSLEKLPDGSILVNVTIKRILKPSAGGSA [r15_726_JUSTAS]"
unit_descriptor = "kcal/mol"
reported_result = 4.21

